Hello, the source for this data is patent US10059701B2, in case you need it.

Target: IRAK1 (Homo sapiens, UniProt P51617)
Construct: His-TEV-IRAK1 (194-712); His (N); TEV cleavage site (N)
Sequence (P51617 194-712): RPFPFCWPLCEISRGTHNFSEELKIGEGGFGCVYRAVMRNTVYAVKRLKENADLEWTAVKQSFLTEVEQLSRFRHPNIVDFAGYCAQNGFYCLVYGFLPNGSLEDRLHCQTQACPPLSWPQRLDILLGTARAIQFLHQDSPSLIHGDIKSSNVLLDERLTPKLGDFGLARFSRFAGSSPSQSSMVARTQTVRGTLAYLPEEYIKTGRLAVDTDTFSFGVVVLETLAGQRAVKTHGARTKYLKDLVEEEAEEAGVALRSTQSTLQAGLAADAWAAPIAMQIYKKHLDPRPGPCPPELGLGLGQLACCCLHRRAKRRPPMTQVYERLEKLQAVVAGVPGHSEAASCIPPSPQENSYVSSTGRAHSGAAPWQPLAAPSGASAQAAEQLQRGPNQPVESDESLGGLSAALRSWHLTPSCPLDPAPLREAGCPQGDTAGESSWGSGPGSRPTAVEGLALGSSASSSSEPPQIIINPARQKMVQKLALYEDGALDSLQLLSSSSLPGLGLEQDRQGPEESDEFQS
Assay: IRAK1 enzymatic assay (ADP-Glo luminescence)
Settings: purified human recombinant His-TEV-IRAK1 (194-712)
Counter-ions that a name gives are not always drawn.
Listed compounds paired with reported IC50
metric_name: IC50

INSERT INTO results (compound, endpoint_value) VALUES
  ('CC1(C)NCCN(c2ccc3c(c2)[nH]/c(=N\C(=O)c2cccc(C(F)(F)F)c2)n3CCCO)C1=O [Compound 191, hydrochloride]', '0.1 to 1 µM'),
  ('O=C(/N=c1\[nH]c2cc(N3CCOCC3=O)ccc2n1[C@H]1CC[C@@H](O)CC1)c1cccc(C(F)(F)F)c1 [Compound 57]', '≤ 0.1 µM'),
  ('O=C(/N=c1\[nH]c2cc(N3CCOCC3=O)ccc2n1[C@H]1CC[C@@H](CO)CC1)c1cccc(C(F)(F)F)c1 [Compound 122]', '≤ 0.1 µM'),
  ('O=C(/N=c1\[nH]c2cc(N3CCOCC3=O)ccc2n1CCCO)c1cccc(-n2cnnn2)c1 [Compound 83]', '0.1 to 1 µM');
